# System: Yersinia pestis
# Test method notes: Antibacterial activity against Yersinia pestis after overnight incubation
# Type: functional
Each record here notes measured MIC.

Sample answers from the record:
IN: What value of MIC has been recorded for this entry: `Cc1cc2ncn(Cc3ccc(Cl)cc3)c2cc1C`
OUT: > 50 µg/mL

IN: Another molecule to look at: `Cc1nc2ccccc2n1Cc1ccc(Cl)c(Cl)c1`
OUT: ≥ 50 µg/mL

IN: Another molecule to look at: `Clc1ccc(Cn2cnc3ccccc32)cc1Cl`
OUT: 25 µg/mL

IN: Another molecule to look at: `Cc1cc2ncn(Cc3ccc(Cl)cc3Cl)c2cc1C`
OUT: > 38 µg/mL

Would you kindly look at the next entry?
IN: What value of MIC has been recorded for this entry: `Cc1cc2ncn(Cc3ccc(Cl)c(Cl)c3)c2cc1C`
OUT: ≥ 50 µg/mL
